Molecular target: Histamine H1 receptor (Homo sapiens, UniProt P35367)
Sequence (P35367 whole entry): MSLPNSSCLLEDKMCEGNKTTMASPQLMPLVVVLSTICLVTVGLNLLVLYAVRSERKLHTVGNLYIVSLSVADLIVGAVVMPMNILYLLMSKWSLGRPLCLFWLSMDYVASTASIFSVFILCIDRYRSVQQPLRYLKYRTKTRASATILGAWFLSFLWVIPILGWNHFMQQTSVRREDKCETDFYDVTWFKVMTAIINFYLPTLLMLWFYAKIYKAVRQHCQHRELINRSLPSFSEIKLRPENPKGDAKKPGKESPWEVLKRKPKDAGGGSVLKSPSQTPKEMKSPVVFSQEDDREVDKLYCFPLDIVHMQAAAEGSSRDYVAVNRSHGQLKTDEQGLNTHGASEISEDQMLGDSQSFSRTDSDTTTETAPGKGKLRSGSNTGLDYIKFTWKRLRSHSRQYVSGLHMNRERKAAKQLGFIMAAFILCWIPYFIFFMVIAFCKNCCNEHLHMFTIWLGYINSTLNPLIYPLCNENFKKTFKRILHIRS
Assay: Antagonist activity at histamine H1 receptor in human SK-N-SH cells assessed as histamine-induced maximum intracellular calcium spike at phase 1 treated 15 to 20 seconds before histamine challenge
recorded_endpoint: IC50 (nM)

| smiles_str | target_entity | recorded_endpoint | unit_name | observed |
| --- | --- | --- | --- | --- |
| Cc1ccc2c(c1)c1c(n2CCc2ccc(C(F)(F)F)cc2)CCN(C)C1 | Histamine H1 receptor (Homo sapiens, UniProt P35367) | IC50 | nM | 98 |

P = Cc1ccc2c(c1)c1c(n2/C=C\c2ccccc2)CCN(C)C1
Q = CN1CCc2c(c3cc(F)ccc3n2CCc2ccccc2)C1
Query block: Of P and Q , whose reported IC50 is numerically smaller? Selection: enter the item's label.
Result block: Q
